# Test system: SF-268
# test: NCI tumour cell line growth inhibition, 48 h
The source made the active and inactive calls. Rule as the data show it: active = GI50 up to about 1.1 µM and inactive = higher.
Answer with one of the outcomes true (1) (active), false (0) (inactive)

# compound, assigned-category
rows = [
    ("O=C1CCCCC(=O)OC2(CCCCC2=O)CC1 (configuration not stated)", "false (0)"),
    ("CCCCCCCCCCCC[C@H](O)[C@H]1CC[C@H]([C@H](O)CCCC[C@H](O)CCCCC[C@@H](O)CC2=C[C@H](C)OC2=O)O1", "false (0)"),
    ("COc1cc(C[C@@]2(C)[C@@H]3CCC[C@H](CO)[C@@]3(C)CC[C@@H]2C)c(Cl)c(OC)c1", "false (0)"),
    ("CC(C)(C)C1=CC(=N/N=c2\\scc(-c3ccccc3)n2Cc2ccccc2)C=C(C(C)(C)C)C1=O", "false (0)"),
    ("NC(=O)N/N=C1/CCC(O)CC1CC(=O)O (configuration not stated)", "false (0)"),
    ("CCn1cc(C(=O)O)c(=O)c2cc(F)c(N3CCN(CN4C(=O)/C(=N\\NC(=O)c5ccncc5)c5cc(Cl)ccc54)CC3)cc21", "false (0)"),
    ("COC(=O)C1Cc2cc3c(cc2C1=O)CCC3 (configuration not stated)", "false (0)"),
    ("Brc1ccc2c(C3CN[C@@H](c4c[nH]c5cc(Br)ccc45)CN3)c[nH]c2c1 (some centres not stated)", "false (0)"),
    ("CC1OC2OC3C(OCC(O)C3O)OC(=O)[C@]34CCC(C)(C)CC3C3=CCC5[C@@]6(C)C[C@H](O)[C@H](OC7OC(CO)C(O)C(O)C7OC7OCC(OC(=O)CC(C)(O)CC(=O)OC1C(O)C2O)C(O)C7O)[C@@](C)(CO)C6CC[C@@]5(C)[C@]3(C)CC4 (some centres not stated)", "false (0)"),
    ("CC1=CC(C)(C)N=C2SC(c3ccc(N)cc3)=NN12", "false (0)"),
]

Problem: Please share the test call associated with Cc1c[nH]c2c(O)cc3c(c12)[C@H](CCl)CN3C(=O)c1cc2cc(NC(=O)Nc3ccc4[nH]c(C(=O)N5C[C@@H](CCl)c6c5cc(O)c5[nH]cc(C)c65)cc4c3)ccc2[nH]1 .
Solution: false (0)

Problem: Please share the test call associated with Oc1nc2cc(Cl)ccc2nc1/C(=N\Nc1ccccc1)C(O)c1ccc2c(c1)OCO2 (configuration not stated) .
Solution: false (0)

Problem: Please share the test call associated with CS/C(c1ccccc1)=[N+](/C)[O-] .
Solution: false (0)

Problem: Please share the test call associated with CN1Cc2c(nc(-c3ccccc3)c[n+]2[O-])N(C)C1 .
Solution: false (0)

Problem: Please share the test call associated with CC(=O)OCC1OC(n2cc([N+](=O)[O-])c(=O)[nH]c2=O)C(OC(C)=O)C(OC(C)=O)C1OC(C)=O (configuration not stated) .
Solution: false (0)

Problem: Please share the test call associated with c1ccc(C2OC3(CCC[C@H]4C[C@H]43)O[C@H]2c2ccccc2)cc1 (some centres not stated) .
Solution: false (0)

Problem: Please share the test call associated with N#C/C(=C\c1ccc([N+](=O)[O-])o1)c1n[nH]c(Cc2ccccc2)n1 .
Solution: true (1)

----------
Documented GI50 across a set of molecules
# Test system: TK-10
# test: NCI tumour cell line growth inhibition, 48 h
Calls of active or inactive are those of the source. No stated cut-off is given here; in the data, active = GI50 up to about 1.1 µM and inactive = higher.

Worked set:
# molecule, GI50
measured = [
    ("CC1C(=O)O[B-]2(c3ccccc3)Oc3ccccc3C=[N+]12 (centres undefined)", "> 100 µM (inactive)"),
    ("CN(/N=C/c1cccc2cccnc12)c1ccccc1", "71.1 µM (inactive)"),
]

The reported GI50 of the molecule c1cc2nnnn2nc1N1CCCC1 was > 100 µM (inactive)

The reported GI50 of the molecule COC(=O)/C(=N\NC(N)=O)C(C#N)c1ccccc1 (centres undefined) was > 100 µM (inactive)

The reported GI50 of the molecule CC1=C[C@@H]2Cc3nc4cc(Cl)ccc4c(N)c3[C@H](C1)C2 was 5.78 µM (inactive)

The reported GI50 of the molecule C[C@H]1[C@H](C)CC[C@]2(C(=O)OC3OC(CO)C(O)C(O)C3O)CC[C@]3(C)C(=CC[C@@H]4[C@@]5(C)C[C@@H](O)[C@@H]6OC(=O)c7cc(O)c(O)c(O)c7-c7c(cc(O)c(O)c7O)C(=O)OC[C@]6(CO)[C@@H]5CC[C@]43C)[C@H]12 (some centres undefined) was > 100 µM (inactive)

The reported GI50 of the molecule CN(C)CCNC(=O)c1cccc2c(NCC(=O)O)c3ccccc3nc12 was 31 µM (inactive)

----------
# Tested on: A498
# test: NCI tumour cell line growth inhibition, 48 h
The source made the active and inactive calls. Rule as the data show it: active = GI50 up to about 1.1 µM and inactive = higher.
Documented GI50 across a set of compounds

Worked set:
# compound, system-under-test, reported-metric, meas-value
records = [
    ("O=C1NC(=O)C2C(=O)NC(=O)C1C2(c1ccccc1)c1ccc(Cl)cc1 (stereo unspecified)", "A498", "GI50", "> 100 µM (inactive)"),
    ("OC12COc3ccccc3C1Oc1ccccc1C2 (stereo unspecified)", "A498", "GI50", "> 100 µM (inactive)"),
    ("N=C(N)NS(=O)(=O)c1ccc(NC(=O)c2cccc3c(O)c4ccccc4nc23)cc1", "A498", "GI50", "> 76.4 µM (inactive)"),
]

The reported GI50 of the compound Cc1c2ccccc2cc2ccc3oc([N+](=O)[O-])cc3c12 was 5.6 µM (inactive)

The reported GI50 of the compound Nc1c2ccccc2nc2nccnc12 was > 100 µM (inactive)

The reported GI50 of the compound CCN(CC)CCC(=O)c1ccc(Oc2ccc(Cl)cc2)cc1 was 16.1 µM (inactive)

The reported GI50 of the compound CS(=O)(=O)N1CC(CCl)c2ccc(O)cc21 (stereo unspecified) was 1.83 µM (inactive)

The reported GI50 of the compound CCOC(=O)/C=C(/C(=O)OCC)n1cc(C)c(=O)n(Cc2cn(COCCOC(C)=O)nn2)c1=O was 50.5 µM (inactive)

The reported GI50 of the compound CC1=C(C(=O)Nc2cc(F)c(F)cc2F)C(c2ccc([N+](=O)[O-])cc2)C(C(=O)Nc2cc(F)c(F)cc2F)=C(C)N1 was 18.2 µM (inactive)

The reported GI50 of the compound N/C(=N\c1cccc(Cl)c1)c1ccccc1N was > 100 µM (inactive)

The reported GI50 of the compound CC(=O)NC1=C(OS(=O)(=O)c2ccc(C)cc2)CN(C)C1=O was 4.25 µM (inactive)

The reported GI50 of the compound C/C=C1/CN2CCC34c5ccccc5N5C(=O)C(C6CC78c9ccccc9N9C(=O)C=CC(C%10CC7N6C/C%10=C/C)C98)=CC(C1CC23)C54 (stereo unspecified) was 8.81 µM (inactive)

The reported GI50 of the compound O=c1/c(=C/c2ccccc2[N+](=O)[O-])sc2nc3ccccc3n12 was 17.3 µM (inactive)

The reported GI50 of the compound NC(=O)/C=C/NC(=O)/C=N\O was > 100 µM (inactive)

The reported GI50 of the compound CC(C)CC(=O)CC(C)[C@]1(CCCOCc2ccccc2)C(=O)N2CCC3(C[C@@]24CCC[C@H]41)OCCO3 (stereo partly specified) was > 10 µM (inactive)

The reported GI50 of the compound Cc1ccccc1C1OC(=O)c2ccc3ccccc3c21 (stereo unspecified) was 2.36 µM (inactive)

The reported GI50 of the compound Cn1c(=O)c2c(ncn2CN2CCN(Cn3cnc4c3c(=O)n(C)c(=O)n4C)CC2)n(C)c1=O was > 100 µM (inactive)

----------
Documented GI50 across a set of compounds
# Tested on: HT-29
# test: NCI tumour cell line growth inhibition, 48 h
Activity calls are given as the source filed them. No stated cut-off is given here; in the data, active = GI50 up to about 1.1 µM and inactive = higher.

# compound, GI50
data = [
    ("Cc1noc(/N=C2\\C=C(Nc3onc(C)c3C)C(=O)c3ccccc32)c1C", "> 100 µM (inactive)"),
    ("O=S1OC(c2ccccc2)(c2ccccc2)C(c2ccccc2)(c2ccccc2)O1", "7.36 µM (inactive)"),
    ("COC1OC2COC(=O)c3cc(O)c(O)c(O)c3-c3c(cc(O)c(O)c3O)C(=O)OC2C(O)C1O (stereo not given)", "34.4 µM (inactive)"),
    ("Clc1cc(Cl)c2c(Cl)cc(Cl)c3c2c1N=S=N3", "> 100 µM (inactive)"),
]

The reported GI50 of the compound COc1ccc(OC(C(=O)O)C(C)C)c2c1CCCC2=O (stereo not given) was > 100 µM (inactive)

----------
# Tested on: NCI-H23
# test: NCI tumour cell line growth inhibition, 48 h
The source made the active and inactive calls. Cut-off read from the data, not from the text of the source: active = GI50 up to about 1.1 µM and inactive = higher.
Answer with one of the outcomes True (active), False (inactive)

Use the examples below as a reference point.
# compound, assigned-category
rows = [
    ("CCOC(=O)Cc1csc2[n+]1C(=O)/C(=C/c1cccc(OC)c1O)S2", "False"),
    ("Cc1ccc(NC=O)c(-c2c(N)[nH]c(=S)[nH]c2=O)c1", "False"),
    ("COC(=O)CCC(=O)NC1C2CC3CC(C2)CC1C3 (configuration not stated)", "False"),
]

Problem: Please share the test call associated with C/C(=N\NC(=S)Nc1ccc(C)cc1)c1nc2cccnc2[nH]1 .
Solution: False

Problem: Please share the test call associated with COc1ccc(CCN(C)C(=O)CC(C#N)(c2ccccc2)c2ccc(OC)c(OC)c2)cc1OC (configuration not stated) .
Solution: False

Problem: Please share the test call associated with CC1=C[C@@H]2Cc3nc4cc(Cl)ccc4c(N)c3[C@H](C1)C2 .
Solution: False

Problem: Please share the test call associated with Oc1ccc(-c2nc3ccc(Br)cc3s2)cc1 .
Solution: False

Problem: Please share the test call associated with Cc1cc(C)c2c(c1)N[S@@](=O)S2 .
Solution: False

Problem: Please share the test call associated with N=C(N)NS(=O)(=O)c1ccc(NC(=O)c2cccc3c(O)c4ccccc4nc23)cc1 .
Solution: False

Problem: Please share the test call associated with CN(C)CCNc1c2ccccc2c2c3c(cccc13)C(=O)N(CCN(C)C)C2=O .
Solution: True

Problem: Please share the test call associated with CSC(=S)OC1CC(n2cnc3c(NC(=O)c4ccccc4)ncnc32)OC1CO[Si](C)(C)C(C)(C)C (configuration not stated) .
Solution: False

Problem: Please share the test call associated with O=C(Cc1nc2ccccc2o1)C(=O)Nc1cccc(Cl)c1 .
Solution: False

The values you see were collected from ChEMBL document CHEMBL1201862.
